Reported values of pIC50 for individual entries
- tested_target: TNFα trimer (Homo sapiens)
- assay_text: TNFα FP Competitive Binding Assay
- protocol_conditions: TNFα FP competitive binding assay; class symbols A/B/C; read-out: TNF IC50
pIC50: −log10 of the molar value.
metric_name: pIC50

1) O=C1NC[C@@H]2CN(c3ncc(-c4ccc5nc6c(n5n4)[C@@H](c4ccccc4)COC6)cn3)CCN12 :: > 6.00
2) c1ccc(C2COCc3nc4ccc(-c5cnc(-n6cccn6)nc5)cc4n32)cc1 (centres unmarked) :: 5.00 to 6.00
3) c1ccc(C2COCc3nc4ccc(-c5cncnc5)cc4n32)cc1 (centres unmarked) :: 4.00 to 5.00
4) OC1CCN(c2ncc(-c3ccc4nc5n(c4n3)[C@@H](c3ccccc3)COC5)cn2)CC1 :: > 6.00
5) OC1CCCC(Oc2cc(-c3ccc4nc5n(c4n3)[C@@H](c3ccccc3)CC5)ccn2)C1 (some centres unmarked) :: 5.00 to 6.00

---

- tested_target: TNFα trimer (Homo sapiens, UniProt P01375)
- Sequence (P01375 77-233 limits assumed): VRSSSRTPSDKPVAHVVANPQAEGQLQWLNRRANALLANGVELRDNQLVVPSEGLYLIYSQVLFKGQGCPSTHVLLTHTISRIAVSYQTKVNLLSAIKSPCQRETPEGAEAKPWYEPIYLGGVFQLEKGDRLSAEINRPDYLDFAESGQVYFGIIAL
- assay_text: TNFα FP Competitive Binding Assay
- protocol_conditions: TNFα FP competitive binding assay; class symbols A/B/C; read-out: TNF IC50
metric_name: IC50

1) N#Cc1ccc(-c2ccc3nc4n(c3c2)C(c2ccccc2)COC4)cn1 (stereo not drawn) :: 1000 to 10000 nM
2) COC(=O)C1CCC(Oc2cc(-c3ccc4nc5n(c4n3)[C@@H](c3ccccc3)CC5)ccn2)CC1 (stereo partly drawn) :: 1000 to 10000 nM
3) COc1ccccc1[C@H]1COCc2nc3ccc(-c4cnc(N5CCC(O)CC5)nc4)nc3n21 :: < 1000 nM
4) c1ccc(C2COCc3nc4ccc(-c5cnc(-n6cccn6)cn5)cc4n32)cc1 (stereo not drawn) :: 1000 to 10000 nM
5) OC(CC1CC1)c1ncc(-c2ccc3nc4n(c3n2)[C@@H](c2ccccc2)CC4)cn1 (stereo partly drawn) :: 1000 to 10000 nM
6) CC(C)(O)c1ncc(-c2ccc3nc4n(c3c2)C(c2c(Cl)cccc2Cl)COC4)cn1 (stereo not drawn) :: < 1000 nM

---

- tested_target: TNFα trimer (Homo sapiens, UniProt P01375)
- assay_text: TNFα FP Competitive Binding Assay
- protocol_conditions: fluorescence polarization competition; 20 nM TNFα trimer, 1 nM OregonGreen488 probe; read-out: TNF IC50 (TNFα FP binding assay IC50)
pIC50: −log10 of the molar value.
Reported values of pIC50 for individual entries
metric_name: pIC50

1) CCN(C)C(=O)c1ccc(-c2ccc3nc4n(c3c2)C(c2ccccc2)CC4)cc1 (stereo not shown) :: > 6.00
2) Cn1ccc(-c2ccc3nc4n(c3c2)C(c2ccccc2)CC4)c1 (stereo not shown) :: 4.00 to 5.00
3) CNC(=O)c1cccc(-c2ccc3nc4n(c3c2)C(c2ccccc2)CC4)c1 (stereo not shown) :: 5.00 to 6.00
4) OC1CCN(c2ncc(-c3ccc4nc5n(c4n3)C(c3ccccc3)C3CC5C3)cn2)CC1 (stereo not shown) :: 5.00 to 6.00
5) O=C1NCC2CN(c3ncc(-c4ccc5nc6n(c5n4)[C@@H](c4ccccc4)CC6)cn3)CCN12 (single isomer, unassigned) :: > 6.00
6) CN(C)CCNC(=O)c1cccc(-c2ccc3nc4n(c3c2)C(c2ccccc2)CC4)c1 (stereo not shown) :: 4.00 to 5.00
7) CC(C)(O)c1ncc(-c2ccc3nc4n(c3n2)C2(COC4)CC(=O)c3ccccc32)cn1 (stereo not shown) :: 5.00 to 6.00
8) NS(=O)(=O)c1ccc(-c2ccc3nc4n(c3c2)C(c2ccccc2)CC4)cc1 (stereo not shown) :: > 6.00
9) c1ccc(C2CCc3nc4ccc(-c5ccc6c(c5)OCO6)cc4n32)cc1 (stereo not shown) :: 5.00 to 6.00
10) O=C1CN(c2ncc(-c3cnc4nc5n(c4c3)C(c3ccccc3)CCC5)cn2)CCN1 (stereo not shown) :: 4.00 to 5.00
11) O=C1NC[C@@H]2CN(c3ncc(-c4ccc5nc6n(c5c4)[C@@H](c4ccccc4)CC6)cn3)CCN12 :: > 6.00
12) OC1(c2ccccc2)CCCc2nc3ccc(-c4cnc(N5CCOCC5)nc4)cn3c21 (stereo not shown) :: 5.00 to 6.00
13) CC(C)(O)c1ncc(-c2ccc3nc4n(c3c2)C(c2ccccn2)CC4)cn1 (stereo not shown) :: 5.00 to 6.00

---

- tested_target: TNFα trimer (Homo sapiens, UniProt P01375)
- assay_text: TNFα FP Competitive Binding Assay
- protocol_conditions: TNFα FP competitive binding assay; class symbols A/B/C; read-out: TNF IC50
Reported values of IC50 for individual entries
metric_name: IC50

1) COc1cccc([C@H]2CCc3nc4ccc(-c5cnc(N6CCN7C(=O)NC[C@@H]7C6)nc5)nc4n32)c1 :: < 1000 nM
2) Cc1ncc(-c2ccc3nc4n(c3c2)C(c2ccccc2)COC4)cn1 (stereo not drawn) :: 1000 to 10000 nM
3) N#Cc1ncc(-c2ccc3nc4n(c3c2)C(c2ccccc2)COC4)cn1 (stereo not drawn) :: 1000 to 10000 nM

---

- tested_target: TNFα trimer (Homo sapiens, UniProt P01375)
- assay_text: TNFα FP Competitive Binding Assay
- protocol_conditions: TNFα FP competitive binding assay; class symbols A/B/C; read-out: TNF IC50
Reported values of IC50 for individual entries
metric_name: IC50

1) CN1CC[C@@H](Oc2cc(-c3ccc4nc5n(c4n3)[C@@H](c3ccccc3)CC5)ccn2)C1 [AQ.6] :: 1000 to 10000 nM
2) c1ccc([C@H]2CCc3nc4ccc(-c5ccnc(OC6CCCC6)c5)nc4n32)cc1 [AS.2] :: 1000 to 10000 nM
3) O=C(CO)N1CCN(c2ncc(-c3ccc4nc5n(c4n3)C3(CCc4ccccc43)COC5)cn2)CC1 (centres unmarked) [AV.6] :: < 1000 nM
4) CS(=O)(=O)c1ccc(-c2ccc3nc4n(c3c2)C(c2ccccc2)COC4)cn1 (centres unmarked) [T.2] :: 1000 to 10000 nM
5) COc1ccccc1[C@@H]1CCc2nc3ccc(-c4cnc(N5CCN6C(=O)NC[C@@H]6C5)nc4)nc3n21 [AP.1] :: 1000 to 10000 nM

---

- tested_target: TNFα trimer (Homo sapiens, UniProt P01375)
- assay_text: TNFα FP Competitive Binding Assay
- protocol_conditions: TNFα FP competitive binding assay; class symbols A/B/C; read-out: TNF IC50
metric_name: IC50

1) C[C@H]1CN(C(=O)CO)CCN1c1ncc(-c2ccc3nc4n(c3n2)C2(COC4)COc3ccccc32)cn1 (stereo partly drawn) :: < 1000 nM
2) Cc1cc(-c2ccc3nc4n(c3c2)C(c2ccccc2)COC4)cnc1N1CCOCC1 (stereo not drawn) :: 1000 to 10000 nM
3) O=C1NCC2CN(c3ncc(-c4ccc5nc6n(c5c4)C(c4cccc(C(F)(F)F)c4)COC6)cn3)CCN12 (stereo not drawn) :: < 1000 nM
4) OC1CCN(c2ncc(-c3ccc4nc5n(c4n3)[C@@]3(COC5)COc4ccccc43)cn2)CC1 :: < 1000 nM
5) O=C1CN(c2ncc(-c3ccc4nc5n(c4n3)[C@@H](c3ccccc3)COC5)cn2)CCN1 :: < 1000 nM
6) OC1CC2(CCN(c3ncc(-c4ccc5nc6n(c5c4)C(c4cccc(F)c4)COC6)cn3)CC2)C1 (stereo not drawn) :: < 1000 nM
7) COc1ccccc1C1CCCCc2nc3ccc(-c4cnc(N5CCOCC5)nc4)cn3c21 (stereo not drawn) :: < 1000 nM
8) CC(=O)Nc1ccc(-c2ccc3nc4n(c3c2)C(c2ccccc2)COC4)cn1 (stereo not drawn) :: 10000 to 100000 nM
9) CN1CCN(c2ccc(-c3ccc4nc5n(c4c3)C(c3ccccc3)COC5)cn2)CC1 (stereo not drawn) :: 1000 to 10000 nM
10) O=c1cc(-c2ccc3nc4n(c3n2)[C@@H](c2ccccc2)CC4)ccn1CC1CCC(F)(F)CC1 :: 1000 to 10000 nM
11) Cc1ccc(C)c([C@@H]2CCc3nc4ccc(-c5cnc(C(C)(C)O)nc5)cc4n32)c1 :: 1000 to 10000 nM
12) COc1ncc(-c2ccc3nc4n(c3c2)C(c2ccccc2)COC4)cc1F (stereo not drawn) :: 1000 to 10000 nM

---

- tested_target: UniProt P01375
- assay_text: TNFα FP Competitive Binding Assay
- protocol_conditions: TNFα FP competitive binding assay; class symbols A/B/C; read-out: TNF IC50
pIC50: −log10 of the molar value.
metric_name: pIC50

1. OC1CCN(c2ncc(-c3ccc4nc5n(c4n3)C(c3ccccc3)COC5)cn2)CC1 (stereo not shown) [AZ.2] :: > 6.00
2. c1ccc2c(c1)OCCC21COCc2nc3ccc(-c4cnc(N5CCCNCC5)nc4)nc3n21 (stereo not shown) [BA.4] :: 5.00 to 6.00
3. O=c1cc(-c2ccc3nc4n(c3n2)[C@@H](c2ccccc2)CC4)ccn1C1CCOCC1 [AW.5] :: 4.00 to 5.00
4. c1ccc([C@H]2CCc3nc4ccc(-c5ccnc(OC6CCCNC6)c5)nc4n32)cc1 (stereo partly shown) [AT.1] :: 5.00 to 6.00
5. CCOC(=O)CNc1ncc(-c2ccc3nc4c(n3c2)C(c2ccccc2OC)CCCC4)cn1 (stereo not shown) [S.2] :: 5.00 to 6.00
6. Fc1cccc(C2COCc3nc4ccc(-c5cnc(N6CCOCC6)nc5)cc4n32)c1 (stereo not shown) [U.2] :: 5.00 to 6.00
7. O=C1NC[C@@H]2CN(c3ncc(-c4ccc5nc6n(c5n4)C4(CCOc5ccccc54)COC6)cn3)CCN12 (stereo partly shown) [BB.1] :: > 6.00
8. CC(C)(O)c1ncc(-c2ccc3nc4n(c3n2)[C@@]2(CCOc3ccccc32)COC4)cn1 [Y.15] :: 5.00 to 6.00
9. CC(C)(O)c1ncc(-c2ccc3nc4n(c3c2)[C@H](c2ccccc2)CC4)cn1 [Y.4] :: 4.00 to 5.00
10. c1ccc([C@H]2CCc3nc4ccc(-c5cnc(N6CCOCC6)nc5)nc4n32)cc1 [Y.10] :: > 6.00
